- TEST: chemical genetic growth profiling, strain panel (AID 1159580);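 also: tested at 20 µM; growth read once vehicle control cultures reached saturation at 30 °C; 1 = growth at the plate median or of vehicle wells; lower values mean less growth of the strain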
- EXPERIMENTAL_PARAMETERS: S. cerevisiae deletion strains, growth OD, locus YOL006C, strain TOP1, stronger effect = lower value
Out of some 5,500 compounds screened, about 2,000 (36%) were called active. Another 18% or so got no clear call; they are omitted. The list shows a part of the results.
normalized growth reference
EXPERIMENTAL_READOUT: normalized growth

# COMPOUND, EXPERIMENTAL_READOUT, RECORDED_RESULT
data = [
    ("CN1C2C[C@H](OC(=O)[C@H](CO)c3ccccc3)C[C@H]1[C@@H](O)C2", "normalized growth", "0.998 (inactive)"),
    ("C#CCN(C)Cc1ccccc1", "normalized growth", "1 (inactive)"),
    ("O=[N+]([O-])c1ccc(OCCO)c([N+](=O)[O-])c1", "normalized growth", "1.01 (inactive)"),
    ("CN(C)CCN(Cc1ccccc1)c1ccccn1", "normalized growth", "1 (inactive)"),
    ("CC(=O)S[C@@H]1CC2=CC(=O)CC[C@]2(C)[C@H]2CC[C@@]3(C)[C@@H](CC[C@@]34CCC(=O)O4)C12 (stereo not given in full)", "normalized growth", "0.994 (inactive)"),
]

Source: PubChem BioAssay AID1159580
